# Assay overview: Emission spectra and fluorescence quantum yield
# Format: physicochemical
# Experimental setup: in aq. PBS, pH 7.4
Counter-ions that a name gives are not always drawn.
Label 1 (yes) when QY (fluorescence quantum yield, Φfl) >= 0.1; otherwise 0 (no).

Below are worked cases with known answers.
Compound: C=CCOC(=O)CCCOP(=O)(OC)[c+]1c2ccc(N(C)C)cc2oc2cc(N(C)C)ccc21 (centres unmarked) [Compound 12]
Qualitative label: 1 (yes)

Compound: CCOP(=O)(CC(=O)[O-])c1c2ccc(N(C)C)cc2[o+]c2cc(N(C)C)ccc12 (centres unmarked) [Compound 14]
Qualitative label: 1 (yes)

Compound: CC[N+](CC)=c1ccc2c(P(=O)(OC)OC)c3c(oc-2c1)-c1ccc(N(C)C)cc1CC3.O=C([O-])C(F)(F)F [Compound 20]
Qualitative label: 0 (no)

Compound: COP(=O)([O-])C1=c2cc3c4c(c2Oc2c1cc1c5c2CCCN5CCC1)CCC[N+]=4CCC3 [Compound 18]
Qualitative label: 1 (yes)

Compound: COP(=O)(C1=c2cc3c4c(c2Oc2c1cc1c5c2CCCN5CCC1)CCC[N+]=4CCC3)N(C(C)C)C(C)C (centres unmarked) [Compound 17, trifluoroacetate]
Qualitative label: 1 (yes)

Compound: CN(C)c1ccc2c(P(=O)(Oc3ccccc3C(=O)[O-])N(C)C)c3ccc(=[N+](C)C)cc-3oc2c1 (centres unmarked) [Compound 9]
Qualitative label: 0 (no)

Compound: CN(C)c1ccc2c(P(=O)(c3ccccc3)c3ccccc3)c3ccc(N(C)C)cc3[o+]c2c1.O=C([O-])C(F)(F)F [Compound 8]
Qualitative label: 1 (yes)

Compound: CCOP(=O)(c1c2ccc(=[N+](C)C)cc-2oc2cc(N(C)C)ccc12)N(C)CCC(=O)O.O=C([O-])C(F)(F)F (centres unmarked) [Compound 10]
Qualitative label: 1 (yes)

Compound: CN(C)c1ccc2c([PH](=O)[O-])c3ccc(N(C)C)cc3[o+]c2c1 [Compound 13]
Qualitative label: 1 (yes)

Compound: CCOP(=O)(C1=c2cc3c4c(c2Oc2c1cc1c5c2CCCN5CCC1)CCC[N+]=4CCC3)N(C)CCC(=O)O (centres unmarked) [Compound 19, trifluoroacetate]
Qualitative label: 1 (yes)

Input line: Kindly determine if QY (fluorescence quantum yield, Φfl) recorded for CC(C)OP(=O)(OC(C)C)c1c2ccc(N(C)C)cc2[o+]c2cc(N(C)C)ccc12.O=C([O-])C(F)(F)F [Compound 6] is above or exactly 0.1.
Output line: 1 (yes)

Input line: How about this compound: C=CCOP(=O)(C1=c2cc3c(cc2C(C)(C)c2cc4c(cc21)CCCN4CCOC)=[N+](CCOC)CCC3)N(C(C)C)C(C)C (centres unmarked) [Compound 26, trifluoroacetate]
Output line: 0 (no)

Input line: How about this compound: COP(=O)([C+]1c2ccc(N(C)C)cc2-c2cccc3c(N(C)C)ccc1c23)N(C(C)C)C(C)C.O=C([O-])C(F)(F)F (centres unmarked) [Compound 28]
Output line: 0 (no)

Input line: How about this compound: CN(C)c1ccc2c(P(=O)([O-])CCC(=O)O)c3ccc(=[N+](C)C)cc-3oc2c1 [Compound 15]
Output line: 1 (yes)

----------
# Assay overview: Absorption spectroscopy (UV/Vis)
# Format: physicochemical
# Experimental setup: in acetonitrile
Structures can show the parent of a compound that is named as a salt.
Labelling: ε at absorption max. reported below 30000 M⁻¹ cm⁻¹ becomes condition met; at or above becomes condition not met.

Compound: CCN(CC)c1ccc2c(P(=O)(OC(C)(C)C)OC(C)(C)C)c(-c3nc4ccccc4s3)c(=O)oc2c1
Qualitative label: condition not met

Compound: CC[N+](CC)=c1ccc2c(P(=O)(OC)OC)c3c(oc-2c1)-c1ccc(N(C)C)cc1CC3.O=C([O-])C(F)(F)F
Qualitative label: condition not met

Compound: CCN(CC)c1ccc2c(P(=O)(OC)OC)c(-c3nc4ccccc4s3)c(=O)oc2c1
Qualitative label: condition met

Compound: COP(=O)([c+]1c2ccc(N(C)C)cc2sc2cc(N(C)C)ccc21)N(C(C)C)C(C)C.O=C([O-])C(F)(F)F (stereo not shown)
Qualitative label: condition not met

Compound: CC1=CC(C)=[N+]2C1=C(P(=O)(OC(C)C)OC(C)C)c1c(C)cc(C)n1[B-]2(F)F
Qualitative label: condition not met

Input line: Check if ε at absorption max. falls below 30000 M⁻¹ cm⁻¹ for C=CCOP(=O)(C1=c2cc3c(cc2C(C)(C)c2cc4c(cc21)CCCN4CCOC)=[N+](CCOC)CCC3)N(C(C)C)C(C)C (stereo not shown) [Compound 26, trifluoroacetate] .
Output line: condition not met

Input line: How about this compound: CCOP(=O)(c1c2ccc(=[N+](C)C)cc-2oc2cc(N(C)C)ccc12)N(C)CCC(=O)O.O=C([O-])C(F)(F)F (stereo not shown)
Output line: condition met

Input line: How about this compound: `COP(=O)(OC)c1c(-c2nc3ccccc3s2)c(=O)oc2cc(N3CC(O)C3)ccc12`
Output line: condition met

Input line: How about this compound: CCOP(=O)(CC(=O)[O-])c1c2ccc(N(C)C)cc2[o+]c2cc(N(C)C)ccc12 (stereo not shown)
Output line: condition met
